// koff lookup, one value per entry
Target: T1, cynomolgus monkey KLK5 (cynomolgus monkey, UniProt Q9Y337 67-293 (human entry))
T1 construct: also called cyno KLK5
T1 chain: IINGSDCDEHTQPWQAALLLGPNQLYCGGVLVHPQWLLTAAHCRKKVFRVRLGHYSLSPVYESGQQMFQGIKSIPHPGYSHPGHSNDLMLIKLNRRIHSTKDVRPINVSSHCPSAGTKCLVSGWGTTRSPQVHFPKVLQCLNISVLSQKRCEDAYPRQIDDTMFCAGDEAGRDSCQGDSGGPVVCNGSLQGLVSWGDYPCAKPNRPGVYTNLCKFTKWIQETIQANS
Experiment: SPR, one-armed monovalent antibody

# binder, koff
rows = [
    ("OA.hu.10C5.N53V.F92Y.S95F (antibody, V domains shown, One-armed (OA) monovalent anti-KLK5 antibody with a human IgG1 Fc, with Q38E/Q39K; constant regions and dummy Fc chain not specified) VH: EVQLVESGGGLVQPGGSLRLSCAASGFSLSSYGVTWVRKAPGKGLEWIGYITSVYGVSYYASWAKSRSTISRDTSKNTVYLQMGSLRAEDMAVYYCARENPDYGYAYDAWGQGTTVTVSS VL: AIRMTQSPSSFSASTGDRVTITCQASESISNELSWYQEKPGKAPKLLIYYASTLASGVPSRFSGSGSGTDFTLTISSLQPEDFATYYCAQGYGSFGVENVFGGGTKVEIK", "5.72e-05 s⁻¹"),
    ("OA.hu.10C5.N53V (antibody, V domains shown, One-armed (OA) monovalent anti-KLK5 antibody with a human IgG1 Fc, without Q38E/Q39K; constant regions and dummy Fc chain not specified) VH: EVQLVESGGGLVQPGGSLRLSCAASGFSLSSYGVTWVRQAPGKGLEWIGYITSVYGVSYYASWAKSRSTISRDTSKNTVYLQMGSLRAEDMAVYYCARENPDYGYAYDAWGQGTTVTVSS VL: AIRMTQSPSSFSASTGDRVTITCQASESISNELSWYQQKPGKAPKLLIYYASTLASGVPSRFSGSGSGTDFTLTISSLQPEDFATYYCAQGFGSSGVENVFGGGTKVEIK", "0.00052 s⁻¹"),
    ("OA.hu.10C5.N53V.F92Y (antibody, V domains shown, One-armed (OA) monovalent anti-KLK5 antibody with a human IgG1 Fc, with Q38E/Q39K; constant regions and dummy Fc chain not specified) VH: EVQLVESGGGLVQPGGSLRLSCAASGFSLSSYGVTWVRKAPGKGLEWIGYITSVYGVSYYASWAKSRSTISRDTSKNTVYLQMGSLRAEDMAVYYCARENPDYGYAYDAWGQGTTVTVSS VL: AIRMTQSPSSFSASTGDRVTITCQASESISNELSWYQEKPGKAPKLLIYYASTLASGVPSRFSGSGSGTDFTLTISSLQPEDFATYYCAQGYGSSGVENVFGGGTKVEIK", "0.000161 s⁻¹"),
    ("OA.hu.10C5.N53V.S34K.S95F (antibody, V domains shown, One-armed (OA) monovalent anti-KLK5 antibody with a human IgG1 Fc, with Q38E/Q39K; constant regions and dummy Fc chain not specified) VH: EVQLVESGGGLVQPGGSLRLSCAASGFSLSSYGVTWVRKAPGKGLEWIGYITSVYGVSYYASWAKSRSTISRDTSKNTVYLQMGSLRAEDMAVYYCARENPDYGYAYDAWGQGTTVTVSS VL: AIRMTQSPSSFSASTGDRVTITCQASESISNELKWYQEKPGKAPKLLIYYASTLASGVPSRFSGSGSGTDFTLTISSLQPEDFATYYCAQGFGSFGVENVFGGGTKVEIK", "2.86e-05 s⁻¹"),
    ("OA.hu.10C5.L5H28.WT (antibody, V domains shown, One-armed (OA) monovalent anti-KLK5 antibody with a human IgG1 Fc, without Q38E/Q39K; constant regions and dummy Fc chain not specified) VH: EVQLVESGGGLVQPGGSLRLSCAASGFSLSSYGVTWVRQAPGKGLEWIGYITSNYGVSYYASWAKSRSTISRDTSKNTVYLQMGSLRAEDMAVYYCARENPDYGYAYDAWGQGTTVTVSS VL: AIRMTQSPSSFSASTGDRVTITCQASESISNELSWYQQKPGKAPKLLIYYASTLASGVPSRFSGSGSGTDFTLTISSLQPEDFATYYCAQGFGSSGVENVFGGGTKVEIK", "0.00424 s⁻¹"),
]
